target: UniProtKB O95747; test: KINOMEscan competition binding; conditions: compound 10.0 µM
Sequence (O95747 whole entry, looked up): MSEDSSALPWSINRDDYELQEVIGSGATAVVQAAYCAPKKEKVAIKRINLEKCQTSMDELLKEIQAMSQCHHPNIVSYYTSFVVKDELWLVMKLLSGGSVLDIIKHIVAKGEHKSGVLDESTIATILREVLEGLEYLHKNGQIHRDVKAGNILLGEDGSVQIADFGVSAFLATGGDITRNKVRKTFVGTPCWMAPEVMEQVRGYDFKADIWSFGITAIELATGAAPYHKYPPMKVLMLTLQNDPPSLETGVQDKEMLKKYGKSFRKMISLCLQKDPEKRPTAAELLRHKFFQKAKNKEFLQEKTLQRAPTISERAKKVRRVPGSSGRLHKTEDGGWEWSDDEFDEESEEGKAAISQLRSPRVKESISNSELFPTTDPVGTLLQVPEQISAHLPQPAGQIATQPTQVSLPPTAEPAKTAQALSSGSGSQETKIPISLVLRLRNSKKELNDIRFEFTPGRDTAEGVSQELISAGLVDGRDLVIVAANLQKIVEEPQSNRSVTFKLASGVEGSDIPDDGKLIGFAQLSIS
// kinase still bound, per cent of control lookup, one value per entry
Please state the figure in %; there is no need to write the unit.

- compound: "CC1=C(C(=O)Nc2cc3cn[nH]c3cc2F)C(c2ccc(C(F)(F)F)cc2)CC(=O)N1 (centres undefined)"
  value observed: 92

What value of kinase still bound, per cent of control has been recorded for this entry: `N#C/C(=C1/Nc2ccccc2S1)c1ccnc(NCCc2cccnc2)n1`
62

What value of kinase still bound, per cent of control has been recorded for this entry: `Cc1cn(-c2cc(C(=O)Nc3ccc(C)c(NC(=O)c4ccno4)c3)cc(C(F)(F)F)c2)cn1`
100

What value of kinase still bound, per cent of control has been recorded for this entry: `N#Cc1cc(-c2ccnc(Nc3ccc(-n4cnc(-c5cccnc5)n4)cc3)n2)cc(N2CCOCC2)c1`
96

What value of kinase still bound, per cent of control has been recorded for this entry: `CC(=O)c1c(C)c2cnc(Nc3ccc(N4CCNCC4)cn3)nc2n(C2CCCC2)c1=O`
81

What value of kinase still bound, per cent of control has been recorded for this entry: `CCN(CCO)CCCOc1ccc2c(Nc3cc(CC(=O)Nc4cccc(F)c4)[nH]n3)ncnc2c1`
100

What value of kinase still bound, per cent of control has been recorded for this entry: `COc1cc2c(Nc3ccc(NC(=O)c4ccccc4)cc3)ncnc2cc1OCCCN1CCOCC1`
100

What value of kinase still bound, per cent of control has been recorded for this entry: `CCCS(=O)(=O)Nc1ccc(F)c(C(=O)c2c[nH]c3ncc(Cl)cc23)c1F`
24

What value of kinase still bound, per cent of control has been recorded for this entry: `CCc1nc(-c2cccc(C)c2)c(-c2ccnc(NC(=O)c3ccccc3)c2)s1`
100

###

// kinase still bound, per cent of control lookup, one value per entry
target: UniProt:O43318; test: KINOMEscan competition binding; conditions: compound 10.0 µM
Sequence (O43318 whole entry, looked up): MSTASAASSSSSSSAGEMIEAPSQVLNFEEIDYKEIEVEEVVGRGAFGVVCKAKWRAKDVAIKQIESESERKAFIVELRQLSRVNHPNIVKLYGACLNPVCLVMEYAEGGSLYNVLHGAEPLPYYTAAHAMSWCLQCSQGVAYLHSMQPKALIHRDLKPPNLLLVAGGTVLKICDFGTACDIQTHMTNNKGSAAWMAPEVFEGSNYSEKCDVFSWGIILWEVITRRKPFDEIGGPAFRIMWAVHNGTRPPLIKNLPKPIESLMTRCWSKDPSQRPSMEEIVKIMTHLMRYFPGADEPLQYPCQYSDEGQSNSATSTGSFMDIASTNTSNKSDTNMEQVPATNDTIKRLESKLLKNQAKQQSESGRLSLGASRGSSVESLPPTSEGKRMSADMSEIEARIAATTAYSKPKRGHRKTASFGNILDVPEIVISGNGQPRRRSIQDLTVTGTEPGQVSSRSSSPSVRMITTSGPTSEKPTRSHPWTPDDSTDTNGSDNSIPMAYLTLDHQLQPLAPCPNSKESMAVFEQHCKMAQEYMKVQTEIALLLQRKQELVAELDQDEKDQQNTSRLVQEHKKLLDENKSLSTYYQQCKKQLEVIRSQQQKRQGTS
Record the result as number plus unit.

- structure: "CC(=O)c1c(C)c2cnc(Nc3ccc(N4CCNCC4)cn3)nc2n(C2CCCC2)c1=O"
  kinase still bound, per cent of control: "7.9%"

What value of kinase still bound, per cent of control has been recorded for this entry: `N#C/C(=C1/Nc2ccccc2S1)c1ccnc(NCCc2cccnc2)n1`
22%

What value of kinase still bound, per cent of control has been recorded for this entry: `CCc1nc(-c2cccc(C)c2)c(-c2ccnc(NC(=O)c3ccccc3)c2)s1`
64%

What value of kinase still bound, per cent of control has been recorded for this entry: `O=c1[nH]c2ccccc2n1C1CCN(Cc2ccc(-c3nc4cc5[nH]cnc5cc4nc3-c3ccccc3)cc2)CC1`
85%

What value of kinase still bound, per cent of control has been recorded for this entry: `COc1cc2ncnc(Nc3cccc(Cl)c3)c2cc1OC`
39%

What value of kinase still bound, per cent of control has been recorded for this entry: `CCN1CCN(Cc2ccc(NC(=O)c3ccc(C)c(/C=C/c4cnc5[nH]ccc5c4OC)c3)cc2C(F)(F)F)CC1`
4.8%

What value of kinase still bound, per cent of control has been recorded for this entry: `CCOc1cc(N2CCC(O)CC2)ccc1Nc1ncc2c(n1)N(C)c1ccccc1C(=O)N2C`
100%

What value of kinase still bound, per cent of control has been recorded for this entry: `COc1cc2c(Nc3ccc(NC(=O)c4ccccc4)cc3)ncnc2cc1OCCCN1CCOCC1`
49%

What value of kinase still bound, per cent of control has been recorded for this entry: `C=CC(=O)Nc1ccc(C(=O)c2sc(Nc3ccc(N4CCN(C)CC4)cc3OC)nc2N)cc1`
73%

Values were extracted from the kinase profiling compilation of Christmann-Franck et al. (2016).
